Target: human XIAP_BIR3 domain purified protein (Homo sapiens, UniProt P98170)
Construct: purchased R & D
Sequence (P98170 252-356 limits assumed): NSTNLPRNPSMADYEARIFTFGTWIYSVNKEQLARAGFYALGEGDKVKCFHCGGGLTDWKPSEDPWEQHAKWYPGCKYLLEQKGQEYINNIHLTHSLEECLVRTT
Assay: XIAP binding inhibitory activity, HTRF method with b-Smac ligand
Conditions: test compound 3 μM; first symbol of the cell; read-out: XIAP binding inhibition rate when the concentration of the test compound is 3 μM
Structures can show the parent of a compound that is named as a salt.

- Molecule: "CN[C@@H](C)C(=O)N[C@H](C(=O)N1CCN(C(=O)c2cc(C(F)(F)F)nn2C)CC1)C1CCCCC1"
  inhibition at 3 µM: "> 25%"
- Molecule: "CN[C@@H](C)C(=O)N[C@H](C(=O)N1CCN(C(=O)c2c(C(=O)N(C)CC(=O)OC)c3ccc(OC)cc3n2C)CC1)C1CCCCC1 [Example 28, Hydrochloride]"
  inhibition at 3 µM: "50 to 75%"
- Molecule: "CN[C@@H](C)C(=O)N[C@H](C(=O)N1CCN(C(=O)c2cc3ccc(OC)cc3n2C)CC1)C1CCCCC1 [Example 1, Hydrochloride]"
  inhibition at 3 µM: "> 75%"
- Molecule: "CN[C@@H](C)C(=O)N[C@H](C(=O)N1CCN(C(=O)c2c(OCCOCCOCCO)c3cc(F)c(F)cc3n2C)CC1)C1CCCCC1 (stereo in doubt)"
  inhibition at 3 µM: "25 to 50%"
- Molecule: "CN[C@@H](C)C(=O)N[C@H](C(=O)N1CCN(C(=O)c2cc3ccc(OC)cc3n2C)C[C@@H]1C)C1CCCCC1 [Example 32, Hydrochloride]"
  inhibition at 3 µM: "50 to 75%"
- Molecule: "CN[C@@H](C)C(=O)N[C@H](C(=O)N1CCN(C(=O)c2c(C(=O)NCCOCCOCC(=O)N3CCN(c4cc(Nc5ncc(C(=O)Nc6c(C)cccc6Cl)s5)nc(C)n4)CC3)c3cc(F)ccc3n2C)CC1)C1CCCCC1"
  inhibition at 3 µM: "50 to 75%"

---

Target: human XIAP_BIR3 domain purified protein (Homo sapiens)
Construct: purchased R & D
Assay: XIAP binding inhibitory activity, HTRF method with b-Smac ligand
Settings: test compound 3 μM; first symbol of the cell; read-out: XIAP binding inhibition rate when the concentration of the test compound is 3 μM
Where a name gives a salt, the structure may show the parent alone.
inhibition at 3 µM values by entry
Measured quantity: inhibition at 3 µM

- Molecule: "CN[C@@H](C)C(=O)N[C@H](C(=O)N1CCN(C(=O)c2ccc3cc(C)cn3c2)CC1)C1CCCCC1"
  Measured quantity: "inhibition at 3 µM"
  Experimental value: "> 75%"
- Molecule: "CN[C@@H](C)C(=O)N[C@H](C(=O)N1CCN(C(=O)c2c(C(=O)N(C)CCOC)c3ccc(OC)cc3n2C)CC1)C1CCCCC1 [Example 26, Hydrochloride]"
  Measured quantity: "inhibition at 3 µM"
  Experimental value: "50 to 75%"
- Molecule: "CN[C@@H](C)C(=O)N[C@H](C(=O)N1CCN(C(=O)c2cc3ccc(OC)cc3n2C)CC1)C1CCC(F)(F)CC1 [Example 42, Hydrochloride]"
  Measured quantity: "inhibition at 3 µM"
  Experimental value: "> 75%"
- Molecule: "CN[C@@H](C)C(=O)N[C@H](C(=O)N1CCN(C(=O)c2cc3ccc(OC)cc3n2C)C[C@H]1C)C1CCCCC1 [Example 24, Hydrochloride]"
  Measured quantity: "inhibition at 3 µM"
  Experimental value: "> 75%"
- Molecule: "CN[C@@H](C)C(=O)N[C@H](C(=O)N1CCN(C(=O)c2cc3ccc(OC)cc3n2C)[C@H](C)C1)C1CCCCC1 [Example 34, Hydrochloride]"
  Measured quantity: "inhibition at 3 µM"
  Experimental value: "> 75%"

---

Molecular target: human XIAP_BIR3 domain purified protein (Homo sapiens, UniProt P98170)
Construct: purchased R & D
Assay: XIAP binding inhibitory activity, HTRF method with b-Smac ligand
Details: test compound 3 μM; first symbol of the cell; read-out: XIAP binding inhibition rate when the concentration of the test compound is 3 μM
Counter-ions that a name gives are not always drawn.
Listed compounds paired with reported inhibition at 3 µM
Measured quantity: inhibition at 3 µM

- Compound: "CN[C@@H](C)C(=O)N[C@H](C(=O)N1CCN(C(=O)c2cc3ccc(OC)cc3n2C)[C@@H](C)C1)C1CCCCC1 [Example 33, Hydrochloride]"
  Experimental value: "> 75%"
- Compound: "CN[C@@H](C)C(=O)N[C@H](C(=O)N1CCN(C(=O)c2cc3cc(F)ccc3n2CC(=O)NCCOCCNC(=O)Cn2c(C(=O)N3CCN(C(=O)[C@@H](NC(=O)[C@H](C)NC)C4CCCCC4)CC3)cc3cc(F)ccc32)CC1)C1CCCCC1"
  Experimental value: "> 75%"
- Compound: "CN[C@@H](C)C(=O)N[C@H](C(=O)N1CCN(C(=O)c2ccc3c(C)n(C)nc3c2)CC1)C1CCCCC1"
  Experimental value: "> 25%"
- Compound: "CN[C@@H](C)C(=O)N[C@H](C(=O)N1CCN(C(=O)c2cc(OCCOC)nn2C)CC1)C1CCCCC1"
  Experimental value: "> 25%"
- Compound: "CN[C@@H](C)C(=O)N[C@H](C(=O)N1CCN(C(=O)c2ccc3nc(C)nn3c2)CC1)C1CCCCC1"
  Experimental value: "> 25%"
- Compound: "CN[C@@H](C)C(=O)N[C@H](C(=O)N1CCN(C(=O)c2cc3cc(F)ccc3n2CC(=O)NCCOCCNC(=O)C[C@@H]2N=C(c3ccc(Cl)cc3)c3c(sc(C)c3C)-n3c(C)nnc32)CC1)C1CCCCC1"
  Experimental value: "> 25%"
- Compound: "CN[C@@H](C)C(=O)N[C@H](C(=O)N1CCN(C(=O)c2c(C(=O)NCCOCCOCCOCCNC(=O)C[C@@H]3N=C(c4ccc(Cl)cc4)c4c(sc(C)c4C)-n4c(C)nnc43)c3cc(F)c(F)cc3n2C)CC1)C1CCCCC1"
  Experimental value: "25 to 50%"
- Compound: "CN[C@@H](C)C(=O)N[C@H](C(=O)N1CCN(C(=O)c2ccc3c(c2)c(F)c(C)n3CCOCCOCCO)CC1)C1CCCCC1"
  Experimental value: "> 75%"
- Compound: "COc1ccc2cc(C(=O)N3CCN(C(=O)CN4C[C@@H](C)NC[C@@H]4CO)CC3)n(C)c2c1 [Example 39, hydrochloride]"
  Experimental value: "50 to 75%"
- Compound: "CN[C@@H](C)C(=O)N[C@H](C(=O)N1CCN(C(=O)c2cc3cc(F)ccc3n2CC(=O)NCCOCCOCCOCCNC(=O)C[C@@H]2N=C(c3ccc(Cl)cc3)c3c(sc(C)c3C)-n3c(C)nnc32)CC1)C1CCCCC1"
  Experimental value: "> 25%"
- Compound: "CCCc1cc(C(=O)N2CCN(C(=O)[C@@H](NC(=O)[C@H](C)NC)C3CCCCC3)CC2)n(C)n1"
  Experimental value: "> 25%"

---

Target: human XIAP_BIR3 domain purified protein (Homo sapiens)
Construct: purchased R & D
Assay: XIAP binding inhibitory activity, HTRF method with b-Smac ligand
Settings: test compound 3 μM; first symbol of the cell; read-out: XIAP binding inhibition rate when the concentration of the test compound is 3 μM
Structures can show the parent of a compound that is named as a salt.
// reported inhibition at 3 µM for each item listed

- Compound: "CN[C@@H](C)C(=O)N[C@H](C(=O)N1CCN(C(=O)c2c(/C=C/C(=O)OC)c3cc(F)ccc3n2C)CC1)C1CCCCC1 [Example 43, Hydrochloride]"
  Measured on: "human XIAP_BIR3 domain purified protein (Homo sapiens)"
  inhibition at 3 µM: "> 75%"
- Compound: "CN[C@@H](C)C(=O)N[C@H](C(=O)N1CCN(C(=O)c2cc3cc(F)ccc3n2CC(=O)NCCOCCOCCNC(=O)C[C@@H]2N=C(c3ccc(Cl)cc3)c3c(sc(C)c3C)-n3c(C)nnc32)CC1)C1CCCCC1"
  Measured on: "human XIAP_BIR3 domain purified protein (Homo sapiens)"
  inhibition at 3 µM: "> 25%"
- Compound: "CN[C@@H](C)C(=O)N[C@H](C(=O)N1CCN(C(=O)c2cc3cc(F)ccc3n2C)CC1)C1CCCCC1"
  Measured on: "human XIAP_BIR3 domain purified protein (Homo sapiens)"
  inhibition at 3 µM: "> 75%"
- Compound: "CN[C@@H](C)C(=O)N[C@H](C(=O)N1CCN(C(=O)c2cc3ccccn3c2)CC1)C1CCCCC1"
  Measured on: "human XIAP_BIR3 domain purified protein (Homo sapiens)"
  inhibition at 3 µM: "> 75%"
- Compound: "CN[C@@H](C)C(=O)N[C@H](C(=O)N1CCN(C(=O)c2c(C(=O)NCCOCCOCCN=[N+]=[N-])c3ccc(OC)cc3n2C)CC1)C1CCCCC1"
  Measured on: "human XIAP_BIR3 domain purified protein (Homo sapiens)"
  inhibition at 3 µM: "> 75%"
- Compound: "CN[C@@H](C)C(=O)N[C@H](C(=O)N1CCN(C(=O)c2c(C(=O)N3CCC[C@@H]3COC)c3ccc(OC)cc3n2C)CC1)C1CCCCC1 [Example 30, Hydrochloride]"
  Measured on: "human XIAP_BIR3 domain purified protein (Homo sapiens)"
  inhibition at 3 µM: "50 to 75%"
